- protocol: Porcine-PK study of BuMA Supreme stent (blood, myocardium, coronary artery tissue)
- Type: in vivo, Yucatan Miniature Swine
- conditionSummary: Yucatan miniature swine, pig, coronary artery, stented segment, other: drug-eluting stent implanted in coronary arteries, study day 14; read-out: Arterial drug concentration
measurementLabel: concentration at 14 days (ng/g)

INSERT INTO measurements (compound, measurementlabel, resultvalue) VALUES
  ('CO[C@H]1C[C@@H]2CC[C@@H](C)[C@@](O)(O2)C(=O)C(=O)N2CCCC[C@H]2C(=O)O[C@H]([C@H](C)C[C@@H]2CC[C@@H](O)[C@H](OC)C2)CC(=O)[C@H](C)/C=C(\C)[C@@H](O)[C@@H](OC)C(=O)[C@H](C)C[C@H](C)/C=C/C=C/C=C/1C [Rapamycin, Sirolimus (rapamycin)]', 'concentration at 14 days', 3700);
